Overview of reported TGI across a group of compounds:
System: NCI/ADR-RES ovarian
Test: NCI tumour cell line growth inhibition, 48 h
Where a SMILES comes first, the peptide text is derived from it. [ ]: non-standard residue; d: D form. The star is where a group is joined. ξ: configuration not given here. ξF = NC(Cc1ccccc1)C(=O)O; Cbz = O=C(OCc1ccccc1)*

# COMPOUND, TGI
data = [
    ("O=c1[nH]c(N/N=C\\C(O)C(O)C(O)C(O)CO)nc2ccccc12 (centres undefined)", "> 100 µM"),
    ("Cc1c(C)c(S(=O)(=O)N(CCCCN)OCCCN)c(C)c2c1OC(C)(C)CC2", "> 100 µM"),
    ("O=C(Nn1c(-c2ccccc2)nc2ccccc2c1=O)c1ccc(Cl)cc1", "> 100 µM"),
    ("CC[C@H](C)[C@H](NC(=O)[C@H]1CCCCN1C)C(=O)N(C)[C@H](C[C@@H](OC(C)=O)c1nc(C(=O)NC23CC(C(=O)OC)(C2)C3)cs1)C(C)C", "0.371 µM"),
    ("CC(C)C(Cl)CCC(C)(Cl)C(=O)CBr (centres undefined)", "23.6 µM"),
    ("O=C(NCCC1CNc2ccccc21)OCc1ccccc1 (centres undefined)", "> 100 µM"),
    ("COc1ccc(-c2cc(/C=C/C(=O)c3ccc(N)cc3)[nH]n2)cc1OC", "> 100 µM"),
    ("CC1=NN(c2nc(N)nc(C(C)Cl)n2)C(C)(C)C1 (centres undefined)", "> 100 µM"),
    ("C(=Nc1nc(SCc2ccccc2)nc2[nH]ncc12)c1cccs1", "> 100 µM"),
    ("CCN(CC)CCNc1ccc([N+](=O)[O-])c2nc3ccc(OC)cc3c(NCCN(CC)CC)c12", "2.76 µM"),
    ("N#Cc1ccccc1OCCOc1ccccc1C#N", "> 100 µM"),
    ("CN1CCN(c2c(F)cc(NC3=C(Cl)C(=O)c4ncccc4C3=O)cc2F)CC1", "49.3 µM"),
    ("O=C(Nc1ccc(OC(F)(F)Cl)cc1)c1cnc(N2CC[C@@H](O)C2)c(-c2ccn[nH]2)c1", "79.6 µM"),
    ("Cc1ccc(OCC2OC(n3cnc4c(Cl)nc(Nc5cc(Cl)cc(Cl)c5)nc43)CC2Oc2ccc(C)cc2)cc1 (centres undefined)", "> 100 µM"),
    ("COCCN(CCOC)c1nc(-c2ccccc2)nc2ccccc12", "61.2 µM"),
    ("COc1ccccc1CNCCN1C(=O)c2ccc3c4c(ccc(c24)C1=O)C(=O)N(CCNCc1ccccc1OC)C3=O", "0.831 µM"),
    ("Cc1ccc(S(=O)(=O)N(CC(O)COc2ccccc2)c2c(F)cccc2F)cc1 (centres undefined)", "43.1 µM"),
    ("O=C(NCCN(CCNC(=O)c1cccc(O)c1O)CCNC(=O)c1cccc(O)c1O)c1cccc(O)c1O", "> 100 µM"),
    ("Cc1[nH]n(-c2nc3c(c(=O)[nH]2)CCCC3)c(=O)c1CCO", "> 100 µM"),
    ("CCOC(=O)/C(=C\\c1cccc(C)c1)C(C)=O", "79.5 µM"),
    ("C=C1CC[C@@H](CCC2CCC3(OC2)O[C@]2(O)CC[C@@]3(C)OC2(C)C)C(C)(C)[C@H]1C/C=C1\\CCOC1=O (some centres undefined)", "> 100 µM"),
    ("CCOC(=O)CNC(=O)C(Cc1ccccc1)NC(=O)OCc1ccccc1 (centres undefined) (Cbz-[ξF]-Gly-OEt)", "> 100 µM"),
    ("Cc1nc2sc3cccc(Cl)c3n2c(=O)c1N=Nc1ccc(Cl)cc1", "> 100 µM"),
    ("Cc1cc(C)c(-c2no/c(=N\\S(=O)(=O)c3ccc(Cl)cc3)o2)c(C)c1", "> 100 µM"),
    ("COc1ccc(Nc2cnc3cc(N)cc(N)c3n2)cc1", "35 µM"),
    ("Cc1ccc(N=N/C(=N/NC(=O)c2ccccc2)c2ccc(N(CCC#N)CCC#N)cc2C)cc1", "> 100 µM"),
    ("Cc1c(C)c2c(c(N)c1C#N)C(=O)N(Cc1ccc(S(N)(=O)=O)cc1)C2=O", "> 100 µM"),
    ("COC(=O)c1cc2c(cc1Cl)Sc1nnc(Nc3ccccc3)n1S2(=O)=O", "27.4 µM"),
    ("N#Cc1c(NC(=O)C(F)(F)F)sc2c3c(=O)c4ccccc4c(=O)c=3oc3ccccc3c12", "61.7 µM"),
    ("ClCCOCCn1cnc2c(Cl)nc(Cl)nc21", "41.4 µM"),
    ("O=C(O)CN(CCN(CC(=O)O)CC(=O)O)CC(=O)O.[Mn+2]", "> 100 µM"),
    ("CCOC(=O)c1c2c(n(-c3ccc(C)cc3)c1C)-c1ccccc1C(=O)C2(C(=O)OCC)C(=O)OCC", "> 85.3 µM"),
    ("CCN1CCC(O)(c2ccc([N+](=O)[O-])cc2)C(C(=O)c2ccc([N+](=O)[O-])cc2)C1 (centres undefined)", "> 100 µM"),
    ("Cc1ccc(S(=O)(=O)NCCCCC(N)C(=O)O)cc1 (centres undefined)", "> 100 µM"),
    ("NCCOc1cccc(C2(N3CCCCC3)CCCCC2)c1", "> 100 µM"),
    ("OCCCCC#Cc1ccccc1C#Cc1cccc(C(F)(F)F)c1", "31.1 µM"),
    ("COc1ccc2nc3c(c(N)c2c1)C1CCC3C1(C)C (centres undefined)", "> 100 µM"),
    ("C#Cc1ccc(-n2c(/C=C/c3ccc(O)cc3)nc3ncccc3c2=O)cc1", "> 100 µM"),
    ("CC(N)(CC(O)(C(F)(F)Cl)C(F)(F)Cl)C(=O)O (centres undefined)", "> 10 µM"),
]
